This collection of values is drawn from ChEMBL document CHEMBL1255494.

assay_protocol: Cmax in Candida albicans infected neutropenic ICR Swiss mouse at 5 mg/kg, ip
Assay type: ADME, organism-based
Set-up: dose 5 mg/kg, route intraperitoneal
settings: ICR Swiss, in vivo

record_smiles	Cmax (ng/mL)
CC[C@H](C)C[C@H](C)CCCCCCCCC(=O)N[C@H]1C[C@@H](O)[C@@H](NCCN)NC(=O)[C@@H]2[C@@H](O)CCN2C(=O)[C@H]([C@H](O)CCN)NC(=O)[C@H]([C@H](O)[C@@H](O)c2ccc(O)cc2)NC(=O)[C@@H]2C[C@@H](O)CN2C(=O)[C@H]([C@@H](C)O)NC1=O	18000
